Test system: Clone A human colon cancer cells
Test: In vitro growth inhibition of Clone A cells (MTT, 72 hr)
Type: cell-based
Conditions: 72 h, read-out: Clone A IC50
Protocol: The reagents for tissue culture were purchased from GIBCO (Grand Island, N.Y.). 5-Dimethylthiazol-2-yl)-2,5-diphenyl tetrazolium bromide (MTT) was purchased from Sigma Chemical Company (St. Louis, Mo.). All agents were prepared as 2 mg/ml stock solutions in DMSO. […] Exponentially growing L1210 cells (1×10^3), or Clone A cells (8×10^2) in 0.1 ml medium were seeded in a 96-well microtiter plate on day 0. […] The absorbances were stored on a floppy disk on an IBM-XT and uploaded onto a VAX computer. […]
I'd be grateful if you could share measured IC50 for these entries.
Give the figure together with its unit, number first.

Use these answered entries as a reference point.
CS(=O)(=O)O.O=C1c2cc([N+](=O)[O-])cc3c2c(cc2ccccc23)C(=O)N1CCCCNCCCN1C(=O)c2cc([N+](=O)[O-])cc3c2c(cc2ccccc23)C1=O = 0.032 µg/mL
CS(=O)(=O)O.CS(=O)(=O)O.C[C@H](CNCCNC[C@@H](C)N1C(=O)c2cc([N+](=O)[O-])cc3c2c(cc2cccnc23)C1=O)N1C(=O)c2cc([N+](=O)[O-])cc3c2c(cc2cccnc23)C1=O = 0.008 µg/mL
CS(=O)(=O)O.O=C1c2cccc3c2c(cc2cc([N+](=O)[O-])cnc23)C(=O)N1CCCCNCCCN1C(=O)c2cccc3c2c(cc2cc([N+](=O)[O-])cnc23)C1=O = 0.543 µg/mL
COc1ccc2cc3c4c(cccc4c2c1)C(=O)N([C@H](C)CNCCNC[C@@H](C)N1C(=O)c2cccc4cc([N+](=O)[O-])cc(c24)C1=O)C3=O = 0.023 µg/mL
CS(=O)(=O)O.CS(=O)(=O)O.Cc1cnc2c(c1)cc1c3c(cc([N+](=O)[O-])cc32)C(=O)N([C@H](C)CNCCNC[C@@H](C)N2C(=O)c3cccc4cc([N+](=O)[O-])cc(c34)C2=O)C1=O = 0.002 µg/mL
CS(=O)(=O)O.Cc1ccc2c(C)c3c4c(cccc4c2c1)C(=O)N(CCCCNCCCN1C(=O)c2cccc4c2c(c(C)c2ccc(C)cc24)C1=O)C3=O = 0.958 µg/mL

For each of the items listed, what is its IC50?
1. CS(=O)(=O)O.Cc1c2c3c(cccc3c3ccccc13)C(=O)N(CCCCNCCCN1C(=O)c3cccc4c3c(c(C)c3ccccc34)C1=O)C2=O
2. CS(=O)(=O)O.O=C1c2cccc3cc([N+](=O)[O-])cc(c23)C(=O)N1CCCCNCCCN1C(=O)c2cc([N+](=O)[O-])cc3c2c(cc2ncccc23)C1=O

1: 0.4 µg/mL; 2: 0.001 µg/mL

For each of the items listed, what is its IC50?
1. C[C@H](CNCCNC[C@@H](C)N1C(=O)c2cccc3c2c(cc2ccc(C(F)(F)F)cc23)C1=O)N1C(=O)c2cccc3cc([N+](=O)[O-])cc(c23)C1=O
2. CS(=O)(=O)O.O=C1c2cc([N+](=O)[O-])cc3c2c(cc2cccnc23)C(=O)N1CCCNCCCN1C(=O)c2cc([N+](=O)[O-])cc3c2c(cc2cccnc23)C1=O

["0.032 µg/mL", "0.005 µg/mL"]
